# System: BDF1 mice, P288 leukemia ip, survival T/C
# protocol description: NCI In Vivo Anticancer Drug Screen. Data for tumor model P288 Lymphocytic Leukemia (intraperitoneal) in B6D2F1 (BDF1) mice
# conditions used: endpoint: survival time, mean or median; dose: 50.0 mg/kg/injection; schedule: Q01DX010 (ip); vehicle: saline
Inconclusive results and toxic doses are left out. Rule for the calls: active = survival T/C of 150% or more; inactive = T/C below 125% in these data.
Labels: active, inactive

# compound, group label
rows = [
    ("COS(C)(=O)=O", "inactive"),
    ("CO[C@@H]1[C@@H](OC2OC(C)C(OC3CC(C)(O)C(OC(=O)CC(C)C)C(C)O3)C(N(C)C)C2O)[C@@H](CC=O)C[C@@H](C)C(=O)/C=C/C2O[C@H]2C[C@@H](C)OC(=O)C[C@H]1OC(C)=O (stereo not given in full)", "inactive"),
    ("CCN(CC)CCNc1ccc(C)c2sc3ccccc3c(=O)c12", "active"),
    ("O=NN(CCCl)C(=O)NCCCl", "inactive"),
    ("CN(C)/N=N/c1nc[nH]c1C(N)=O", "inactive"),
]
